Ref: the nanobody polyreactivity screen of Harvey et al. (2022)

RUN DESCRIPTION: yeast display, Sf9 membrane polyspecificity reagent, FACS + sequencing; frameworks hold sequencing errors
QUANTITY KIND: polyreactivity (PSR sort gate)

These solved cases illustrate the format of a correct answer.
SEQUENCE CODE: QVQLVESGGGLVQAGGSLRLSCAASGSIFYVYAMGWYRQAPGKERELVAAITARVTSTYYADSVKGRFTISRDNAKNTVYLQMNRLKPEDTADYYCAARTSYKTGYRKYDYWGQGTQVTVSS
QUANTITY KIND: polyreactivity (PSR sort gate)
REPORTED RESULT: low polyreactivity
//
SEQUENCE CODE: QVQLVESGGGLVQAGGSLRLICAASGLIFGKYAMGWYRQAPGKEREFVAAITRSGGSTYYADSVKGRFTISRDNAKNTVYLQMNSLKPEDTAVYYCAAYSLKYYNGYDYWGQGTQVTVSS
QUANTITY KIND: polyreactivity (PSR sort gate)
REPORTED RESULT: high polyreactivity
//
SEQUENCE CODE: QLQLVESGGGLVKAGGSLRLSCADSGLIFRNNCMGGYRHAPRKERELVAAISNRGGSTYYADSVKGRFTISRDNAKNTVYLQMNSLKPEDTAVYDCNAVASYSQGGYRYDYWGQGTQVTVSS
QUANTITY KIND: polyreactivity (PSR sort gate)
REPORTED RESULT: high polyreactivity
//
SEQUENCE CODE: QVQLVESGGVLVQSGGSLRLSCAASGFIFYDYAMGWYRQAPGKEREMVAAITSGGSTYYADSVKGRFTISRDNAKNTVYLQMKSLKPEDTAVYYCAADAYNLDDDTYDYWGQGTIVTVSS
QUANTITY KIND: polyreactivity (PSR sort gate)
REPORTED RESULT: low polyreactivity

Which polyreactivity (PSR sort gate) value belongs to `QVQLVESGGGLVQAGGSLRLSCAASGSTFRYNAMGWYRQAPGKERELVASISGSGGGTYYADSVKGRFTISRDNAKNTVYLQMNSLKPEDTAVYYCAADAGAFYFGGDYWGQGTQVTVSS` ?
low polyreactivity

Here is the next sequence: `QVQLEESGGGLVQAGGSLRLSCAASGFIFGRNAMGWYRQAPGKERELVAAITRSGGSTYYADSVKGRFTISRDNAKNTVYLQMNSLKPEDTAVYYCAKGVFTWGVFRVGIRDDYWGQGTQVTVSS`
high polyreactivity

Here is the next sequence: `QVQLVESGGGLVQAGGSLRLSCAASGFTLFYNAMGWYRQAPGKERELVAAITARGGGTYYADSVKGRFTISRDNAKNPVYLQMNSLKPEDTAVYYCAADSFIPPYDHWGQGTQVTVSS`
low polyreactivity

Here is the next sequence: `QVQLVESGGGLVQAGGSLRLSCAASGSYLRYYAMGWYRQAPGKERELVAAISRSGTNTYYADSVKGRFTISRDNAKNTVYLQMNSLKPEDTAVYYCAARSWKRRVGRDYWGQGTQVTVSS`
high polyreactivity

Here is the next sequence: `QVQLVESGGGLVQAGGSLRLSCAASGGTFYRYAMGWYRQAPGKERELVAVISKRGGTTYYADSVKGRFTISRDNAKITVYLQMNSLKPEDTAVYYCADRPYYWGQGTQVTVSS`
high polyreactivity

Here is the next sequence: `QVQLVESGGGLVQAGGSLRLICAASGFIFESNAMGWYRQAPGKERELVAAITSAGRTYYADSVKGRFTISRDNAKNTVYLQMNSLKPEDNAVYYCNATRSRYRYDYWGQGTQVTVSS`
high polyreactivity

Here is the next sequence: `QVQLVESGGSLVQAGGSHRLSCAASRSIFPPYAMGWYRPAAGKERELVAAITLRGGSTYYADSVKGRFTISRDNAKNTVYLQMNSLKPEDTAVYYCAAYKSAREYYWGQGTQVTVSS`
high polyreactivity

Here is the next sequence: `QVQLVESGGGLVQAGGSLRLSCAASGSIFDVNAMGWYRQATGKERELVAAISDSGGSTYYADSVKGRFTISRDNAKNTVYLQMNSLKPEDTAVYYSNADWSWYNYYDFDYWGHGTQVTVSS`
low polyreactivity

Here is the next sequence: `QVQLVESGGGLVQAGGSLRLSCAASGSIFRFYAMGWYIQAPGKERELVAGITWSGASTYYAVSVKGRFTISRDNAKNTVYLQMNSLKPEDTAVYYCAAKSLIVRYDSWGQGTQVTVSS`
high polyreactivity

Here is the next sequence: `QVQLVESGGGIVQAGGSLRLRCAASGFTFERYSMGWYRQAPGKERELVATITRRSGRTSYADSVKGRFTISRDNATNTVYLQMNRLKPEDTAVYYCAVDDAYPDRYDYWGQGTQVTVSS`
high polyreactivity

Here is the next sequence: `QVQLVESGGGLVQAGGSLRLSCAASGRTLGRYAMGWYRQAPGKERELVAAINVGGGTTHYADSVKGRFTISRDNAKNTVYLQMNSLKPEDTAVYYCAAYRYTYGDRHAYDYWGQGTQVTVSS`
low polyreactivity

Here is the next sequence: `QVQLVESGGGLVQAGGSLRLSCAASGRTFELYAMGWYRQAPGKERELVAAIRQSDVSTYYADSVKGRFTISRDNAKNTVYLQMNSLKPEDTAVYYCAARNRYRRRYYYWGQGTQVTVSS`
high polyreactivity

---

RUN DESCRIPTION: yeast display, Sf9 membrane polyspecificity reagent, FACS + sequencing; frameworks hold sequencing errors
QUANTITY KIND: polyreactivity (PSR sort gate)

These solved cases illustrate the format of a correct answer.
SEQUENCE CODE: QVQLVESVGGLGQAGGSLRLSCAASGSTFAGYTMGWYRQAPGKERELVAANTSRGGRTYYADSVKGRFTISRDNAKNTVYIQMNSLKPEDTAVYYCAAVSRYYAELMYYWGQGTQVTVSS
polyreactivity (PSR sort gate): high polyreactivity
--
SEQUENCE CODE: QVQLQESGGGLVQAGGSLRLSCAASGTISDSGLMGWYRQAPGKERELVAGISSGGITNYADSVKGRFTISRDNAKNSVDLQMNSLKPEDTAVYWGRGTQVTVSS
polyreactivity (PSR sort gate): low polyreactivity
--
SEQUENCE CODE: QVQLVESGGGLVQAGGSLRLSCAASGLIFNIYAMGWYRQAPGKERELVAAISKSGGSTYYADSVKGRFTISRDNAKNTVYLQMNSLKPEDTAVYYCAAPYLVRSQRYYYWGQGTQVTVSS
polyreactivity (PSR sort gate): high polyreactivity
--
SEQUENCE CODE: QVQLVESGGGLVQAGGSLRLSCAASGRTFLPNAMGWYRQAPGKDRELVAVITSGGSTNYADSVKGRFTISRDNAKNTVYLQMNSLKPEDTAVYYCAARRWSSSQGHWGKSAGYGYWGQGTQVTVSS
polyreactivity (PSR sort gate): low polyreactivity
--
SEQUENCE CODE: QVQLVESGGGLVQAGGSLRLSCAASGRTIAYNAMGWYRQAPGKERELVAAISWSGGSTYYADSVKGRFTISRDNAKNTVYLQMNSLKPEDTAVYYCAKRFGQYRYPYDYWGQGTQVTVSS
polyreactivity (PSR sort gate): high polyreactivity

Which polyreactivity (PSR sort gate) value belongs to `QVQLVESGGGLVQAGGSLRLSCAASGFIFDDNAMGWYRQAPGKERELVATITWSTGSTYYADSVKGRFTISRDNAKNTVYLQMNSLKPEDTAVYYCAKESYFYRYYLAYDYWGQGTQVTVSS` ?
low polyreactivity

Here is the next sequence: `QVQLVESGGGLVQAGGSLRLSCAASGFTFQNYAMGWYRQAPGKERELVAAIDSRGGRTYYADSVKGRFTISRDNAKNTVYLQMNSLNPEDTAVYYCAGAENKRFGSVGYYYWGQGTQVTVSS`
low polyreactivity

Here is the next sequence: `QVQLVDSGGGLVQAGGSLRLSCAASGLTFRRYAMAWYRQAPGKERELVAGISRGGSTYYADSVKGRFTISRDNAKNTVYLQMTSLKPEDTAVYYCAAYNRGTYPVQPVPYDMDYWGQGTQVTVSS`
low polyreactivity

Here is the next sequence: `QVQQQESGGGLVQAGGSLRLSCAASGTIFQLTVMGRYRQAPGKERELVASIDYGGNTNYADSVKGRFTISRDNAKNTVYLQMHSLKPEDTAVYYCAASSDSWTTHPYWGQGTQVTVSS`
low polyreactivity

Here is the next sequence: `QVQLVESGGGLVQAGGSLRLSCASSGRIFKYYSMGCYRQSPGKVRELVASISWSGGSTYYADSVKGRFTISRDNAKNTVYLQMNSLKPEDTAVYYCAAYVTYLRYRSNIAYYGYDYWGQGTQVTVSS`
high polyreactivity

Here is the next sequence: `QVQLVESGGGLVQAGGSLRLSCAASGSIFRWYAMGWYRQAPGKERELVAGISSTGGSTYYADSVKGRFTISRDNAKNTVYLQMNSLKPEDTAVLYCAVVSYPSAFRRYNYWGQGTQVTVSS`
high polyreactivity

---

RUN DESCRIPTION: yeast display, Sf9 membrane polyspecificity reagent, FACS + sequencing; frameworks hold sequencing errors
QUANTITY KIND: polyreactivity (PSR sort gate)

SEQUENCE CODE: QVQLVESGGGLVQAGGSLRLSCAASGYTVAFYDMGWYRQAPRKERELVAAISASGGSTYYADSVKGRFTISRDNAKNTVYLQMNSLKPEDTAVYYCAARSKYRGDMDYWGQGTQVTVSS
REPORTED RESULT: high polyreactivity
//
SEQUENCE CODE: QVQLVESGGGLVQAGGILRLSCAPSGSTFTFYAMGLYRQAPGKERELVAAINSSGGRTYYADSVKGRFTISRDNAKNTVYLQMNSLKPEDTAVYYCAARRPLVRYIMGYWGQGTQVTVSS
REPORTED RESULT: high polyreactivity
//
SEQUENCE CODE: QVQLVESGGGLVQAGGSLRLICAASGLIFYRNAMGWYRQAPGKERELVAAISSGGRTYYADSVKGRFTISRDNEKNTVYLQMNSLKPEDTAVYYCAASYWKPHRESGYDYWGQGTQVTVSS
REPORTED RESULT: high polyreactivity
